Reported switch fluorescence ratio values are given for each entry in this list.
Tested on: ATP;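 further: ATP exposure 15 min at 22 °C before imaging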
testSummary: switch fluorescence ratio, 500 uM ATP over buffer (Cy3 cluster intensity, sum of 5 cycles each) (fold (ratio)); higher = stronger signal-on switching upon ATP binding; sequences stand for … in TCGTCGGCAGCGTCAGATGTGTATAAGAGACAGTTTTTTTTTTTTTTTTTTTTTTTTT…TC
measurementConditions: aptamer strand: ATP DNA aptamer (quencher-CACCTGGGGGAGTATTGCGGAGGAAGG + anchor), 100 nM annealed; ATP concentration: 500 uM

[
  {
    "residueSequence": "TCACGCCTTT",
    "assayedSystem": "ATP",
    "switch fluorescence ratio": 1.05
  },
  {
    "residueSequence": "GCGGGTAGTG",
    "assayedSystem": "ATP",
    "switch fluorescence ratio": 1.02
  },
  {
    "residueSequence": "GAAGGGGTTC",
    "assayedSystem": "ATP",
    "switch fluorescence ratio": 1.06
  },
  {
    "residueSequence": "GGATGATCGT",
    "assayedSystem": "ATP",
    "switch fluorescence ratio": 0.954
  },
  {
    "residueSequence": "GCGGGTTGGC",
    "assayedSystem": "ATP",
    "switch fluorescence ratio": 1.08
  },
  {
    "residueSequence": "TTAACCGGGT",
    "assayedSystem": "ATP",
    "switch fluorescence ratio": 1.01
  },
  {
    "residueSequence": "GGGCCCTGGG",
    "assayedSystem": "ATP",
    "switch fluorescence ratio": 0.994
  },
  {
    "residueSequence": "GATTTTGGGG",
    "assayedSystem": "ATP",
    "switch fluorescence ratio": 1.01
  },
  {
    "residueSequence": "AGTAAAAAGG",
    "assayedSystem": "ATP",
    "switch fluorescence ratio": 0.993
  },
  {
    "residueSequence": "CGCGGGTTGC",
    "assayedSystem": "ATP",
    "switch fluorescence ratio": 1.06
  },
  {
    "residueSequence": "TTAAGATCAT",
    "assayedSystem": "ATP",
    "switch fluorescence ratio": 0.969
  },
  {
    "residueSequence": "TTGACCTTTG",
    "assayedSystem": "ATP",
    "switch fluorescence ratio": 1.01
  },
  {
    "residueSequence": "AAGTGCCCCA",
    "assayedSystem": "ATP",
    "switch fluorescence ratio": 1.05
  },
  {
    "residueSequence": "TTTTGCTTGA",
    "assayedSystem": "ATP",
    "switch fluorescence ratio": 1.07
  },
  {
    "residueSequence": "GACAAACCGC",
    "assayedSystem": "ATP",
    "switch fluorescence ratio": 1.18
  },
  {
    "residueSequence": "ATTCTAGGTA",
    "assayedSystem": "ATP",
    "switch fluorescence ratio": 1
  },
  {
    "residueSequence": "GCGGGCCGGG",
    "assayedSystem": "ATP",
    "switch fluorescence ratio": 0.988
  },
  {
    "residueSequence": "GCGGGGATTT",
    "assayedSystem": "ATP",
    "switch fluorescence ratio": 0.996
  },
  {
    "residueSequence": "CTTAGGGAGC",
    "assayedSystem": "ATP",
    "switch fluorescence ratio": 0.969
  },
  {
    "residueSequence": "CCGGGATTGA",
    "assayedSystem": "ATP",
    "switch fluorescence ratio": 1.08
  }
]
